Hello, the source for this data is paper PMC8151276, in case you need it.

Molecular target: ADORA3 (Homo sapiens)
Construct: purchased Promega (in-house HiBiT-GPCR construct library, NanoBRET)
Sequence (P0DMS8 1-318): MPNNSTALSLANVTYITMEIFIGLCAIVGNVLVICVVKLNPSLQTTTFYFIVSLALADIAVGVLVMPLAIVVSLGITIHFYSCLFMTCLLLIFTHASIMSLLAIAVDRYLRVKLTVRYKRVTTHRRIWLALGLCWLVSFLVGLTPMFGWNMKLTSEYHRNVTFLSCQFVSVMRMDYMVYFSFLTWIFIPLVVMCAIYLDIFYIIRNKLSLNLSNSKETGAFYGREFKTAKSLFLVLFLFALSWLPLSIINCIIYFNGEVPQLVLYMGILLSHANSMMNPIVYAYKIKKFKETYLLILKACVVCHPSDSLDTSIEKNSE
Assay: NanoBRET screen HiBiT-ADORA3 in HEK293
Type: binding
Conditions: ADORA3; tracer 1μM
METRIC: NanoBRET Fold Response
# answer = number (no unit)

Exercise: What measured NanoBRET Fold Response goes with O=C(CCc1ccc2n1[B-](F)(F)[N+]1=C(c3ccc[nH]3)C=CC1=C2)NCCOCCOCCNC(=O)OCCOCCN1CCN(C2=Nc3ccccc3Sc3ccccc32)CC1 [Quetiapine-a-2-NB590] ?
Solution: 0.82

Exercise: Lookup N#CN=C(NCCCOc1cccc(CN2CCCCC2)c1)NCCNC(=O)CCOCCOCCOCCOCCNC(=O)CCc1ccc2n1[B-](F)(F)[N+]1=C(c3ccc[nH]3)C=CC1=C2 [Aminopotentidine-2-NB590]
Solution: 1.03

Exercise: Lookup CCCn1c(=O)c2[nH]c(-c3ccc(OCC(=O)NCCNC(=O)CCOCCNC(=O)c4ccc(CNC(=O)CCc5ccc6n5[B-](F)(F)[N+]5=C(c7ccc[nH]7)C=CC5=C6)cc4)cc3)nc2n(CCC)c1=O [XAC-3-NB590]
Solution: 6.72
